Listed below: Average EC50, HEK-Blue IL-2R (CD122+, CD132+) Reporter Assay, intact molecule values for each entry.
- Tested On: T1, IL-2Rβγ on HEK-Blue IL-2Rβγ reporter cells (InvivoGen) (UniProt P14784 27-551; P31785 23-369, limits assumed)
- T1 sequence (looked up) 1: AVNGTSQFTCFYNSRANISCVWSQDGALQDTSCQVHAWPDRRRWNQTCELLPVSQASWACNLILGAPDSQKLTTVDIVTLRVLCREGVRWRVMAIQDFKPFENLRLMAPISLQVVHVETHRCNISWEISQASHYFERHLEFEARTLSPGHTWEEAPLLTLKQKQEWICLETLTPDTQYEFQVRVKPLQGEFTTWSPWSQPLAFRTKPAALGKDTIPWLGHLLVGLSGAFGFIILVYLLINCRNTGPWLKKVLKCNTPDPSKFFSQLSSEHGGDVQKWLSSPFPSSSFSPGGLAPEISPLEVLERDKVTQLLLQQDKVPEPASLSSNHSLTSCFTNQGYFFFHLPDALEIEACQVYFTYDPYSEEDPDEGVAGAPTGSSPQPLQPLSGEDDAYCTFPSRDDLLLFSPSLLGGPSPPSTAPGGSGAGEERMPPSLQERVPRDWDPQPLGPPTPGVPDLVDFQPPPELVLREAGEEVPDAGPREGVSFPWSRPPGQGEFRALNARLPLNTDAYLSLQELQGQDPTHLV
- T1 sequence (looked up) 2: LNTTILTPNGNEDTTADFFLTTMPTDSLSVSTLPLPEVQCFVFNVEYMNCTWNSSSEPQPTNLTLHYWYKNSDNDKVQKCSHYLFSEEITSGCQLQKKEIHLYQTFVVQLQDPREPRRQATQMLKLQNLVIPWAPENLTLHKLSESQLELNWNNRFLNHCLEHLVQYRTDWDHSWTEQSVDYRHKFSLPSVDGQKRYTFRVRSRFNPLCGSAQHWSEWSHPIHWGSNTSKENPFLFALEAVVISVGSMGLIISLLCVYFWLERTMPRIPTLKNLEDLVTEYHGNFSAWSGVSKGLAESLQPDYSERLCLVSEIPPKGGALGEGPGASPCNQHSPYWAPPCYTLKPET
- Assay Info: cell-based or functional assay
Bridges are numbered along the chain shown (N, C = ends). Primed or numbered codes have the meaning given here. [ ]: non-standard residue; d: D form. Ygp = O-(8x polyethylene glycol-amino)-tyrosine (Tyr, amino-capped PEG8); Yn3 = O-(9x polyethylene glycol-azido)-tyrosine (Tyr, azide-capped PEG9); Ygp″ = O-(8x polyethylene glycol-amino)-tyrosine; Yn3″ = O-(9x polyethylene glycol-azido)-tyrosine; PEG4′ = 4x polyethylene glycol; hSer = N[C@@H](CCO)C(=O)O; Nle = CCCC[C@H](N)C(=O)O

Binder	Measured Value
CMP-317 (ligand, bridge N-31; not fully specified (bridges); ends not checked) GSGSGSG[PEG4′]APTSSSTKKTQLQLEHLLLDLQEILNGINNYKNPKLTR[Nle]L[hSer][Yn3]KF[Ygp][Nle]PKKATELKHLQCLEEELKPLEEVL[hSer]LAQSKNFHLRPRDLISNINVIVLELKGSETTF[hSer]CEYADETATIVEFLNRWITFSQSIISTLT	2.24 nM
CMP-302 (ligand, lactam N-30; ends not checked) GPLGLAGAPTSSSTKKTQLQLEHLLLDLQEILNGINNYKNPKLTR[Nle]L[hSer][Yn3″]KF[Ygp″][Nle]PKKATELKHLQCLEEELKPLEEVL[hSer]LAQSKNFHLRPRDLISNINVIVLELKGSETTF[hSer]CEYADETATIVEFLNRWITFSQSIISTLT	0.436 nM

Let us examine a further case.
Q: Can you look up the measured Average EC50, HEK-Blue IL-2R (CD122+, CD132+) Reporter Assay, intact molecule of CMP-318 (ligand, lactam N-32; ends not checked) SGRVANLVGAPTSSSTKKTQLQLEHLLLDLQEILNGINNYKNPKLTR[Nle]L[hSer][Yn3]KF[Ygp][Nle]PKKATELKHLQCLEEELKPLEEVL[hSer]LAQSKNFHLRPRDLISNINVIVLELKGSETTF[hSer]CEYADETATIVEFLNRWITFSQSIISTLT for me?
A: 3.37 nM
